Source: patent US8304547B2

- assayed system: human trkA receptor (Homo sapiens, UniProt P04629)
- Sequence (P04629 33-796): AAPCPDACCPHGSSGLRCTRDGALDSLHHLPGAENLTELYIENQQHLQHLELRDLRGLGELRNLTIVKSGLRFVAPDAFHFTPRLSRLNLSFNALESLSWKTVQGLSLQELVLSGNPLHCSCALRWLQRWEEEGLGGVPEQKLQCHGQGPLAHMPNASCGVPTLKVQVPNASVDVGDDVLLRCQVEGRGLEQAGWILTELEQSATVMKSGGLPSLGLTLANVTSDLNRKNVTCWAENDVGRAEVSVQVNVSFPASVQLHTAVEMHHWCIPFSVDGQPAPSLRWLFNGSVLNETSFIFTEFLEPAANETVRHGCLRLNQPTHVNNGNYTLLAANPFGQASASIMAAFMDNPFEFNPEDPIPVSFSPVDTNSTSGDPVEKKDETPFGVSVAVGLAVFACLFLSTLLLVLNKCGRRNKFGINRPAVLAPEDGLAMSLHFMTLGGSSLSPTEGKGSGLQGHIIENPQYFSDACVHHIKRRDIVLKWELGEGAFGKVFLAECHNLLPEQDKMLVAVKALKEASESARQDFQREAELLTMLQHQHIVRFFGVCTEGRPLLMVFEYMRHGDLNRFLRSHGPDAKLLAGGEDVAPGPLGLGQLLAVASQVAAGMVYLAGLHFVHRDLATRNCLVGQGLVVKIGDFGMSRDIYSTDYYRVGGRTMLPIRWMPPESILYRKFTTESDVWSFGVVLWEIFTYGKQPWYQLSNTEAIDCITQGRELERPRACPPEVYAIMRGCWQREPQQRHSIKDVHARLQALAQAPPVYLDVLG
- assay method text: trkA receptor inhibitory activity using a cell expressing a nerve growth factor receptor (NGF-dependent increase of calcium concentration in cells, FLIPR)
- condition details: HEK293 cells stably expressing human trkA receptor; NGF-stimulated change in Ca concentration in cells
observation type: pIC50
# log scale: pIC50 equals minus log10 of the concentration in mol/L

>>> print(df.to_string())
                                   molecule  readout_value
0  COCCNC(=O)c1cc(CN2CCOCC2(C)C)ccc1NC(=O)c1csc(N2CC[C@H](OC)C2)n1           8.00
1  COCCN(C)c1nc(C(=O)Nc2ccccc2C(=O)Nc2cccnc2)cs1           8.54

Reported pIC50 of `COCCNC(=O)c1cc(CN2CCOCC2)ccc1NC(=O)c1csc(N(C)CCOC)n1` : 8.01

###

- Test system: enhanced vascular permeability caused by Rat NGF
- assay method text: Inhibitory activity on enhanced vascular permeability caused by Rat NGF (Evans blue)
- Assay type: in vivo
- condition details: 1 h, Wistar female rat, 10 mg/kg oral, NGF intracutaneously 60 minutes after administration, read-out: Inhibitory rate
Structures can show the parent of a compound that is named as a salt.
observation type: inhibition in vivo at 10 mg/kg (%)
Answer format: numeric, % implied, no suffix.

# count of solved cases: 5
In [3]: df
Out[3]:
                                   compound  readout_value
0  COCCNC(=O)c1cc(CN2CCOCC2)ccc1NC(=O)c1csc(N(C)CCOC)n1             90
1  COCCNC(=O)c1cc(CN2CCOCC2(C)C)ccc1NC(=O)c1csc(N2CC[C@H](OC)C2)n1             87
2  CCOCc1ccc(NC(=O)c2csc(N3CC[C@H](OC)C3)n2)c(C(=O)NCCOC)c1             76
3  COC[C@@H](C)NC(=O)c1cc(CN2CCOCC2)ccc1NC(=O)c1csc(N2CC(OC)C2)n1             76
4  CN(CC1CCOCC1)c1nc(C(=O)Nc2ccccc2C(=O)Nc2cccnc2)cs1             90

Reported inhibition in vivo at 10 mg/kg of `COCCNC(=O)c1cc(CN2CCOCC2)ccc1NC(=O)c1csc(N2CC[C@H](F)C2)n1` : 76

Reported inhibition in vivo at 10 mg/kg of `O=C(Nc1ccccc1C(=O)Nc1cccnc1)c1coc(N2CCOCC2)n1` : 69

Reported inhibition in vivo at 10 mg/kg of `CCOC1CCN(c2nc(C(=O)Nc3ccccc3C(=O)NC3CCOCC3)cs2)CC1` : 92

Reported inhibition in vivo at 10 mg/kg of `COCCN(C)c1nc(C(=O)Nc2ccccc2C(=O)NC2CCOCC2)co1` : 78

Reported inhibition in vivo at 10 mg/kg of `COCCN(C)c1nc(C(=O)Nc2ccccc2C(=O)Nc2cccnc2)cs1` : 98

Reported inhibition in vivo at 10 mg/kg of `COCCNC(=O)c1cc(CN2CCOCC2)ccc1NC(=O)c1csc(N2CC(OC)C2)n1` : 71

Reported inhibition in vivo at 10 mg/kg of COCCNC(=O)c1cc(CN2CCO[C@@H](C)C2)ccc1NC(=O)c1csc(N2CC[C@H](OC)C2)n1 [Example 1181, fumarate] : 81

###

- assayed system: human trkA receptor (Homo sapiens)
- assay method text: trkA receptor inhibitory activity using a cell expressing a nerve growth factor receptor (NGF-dependent increase of calcium concentration in cells, FLIPR)
- condition details: HEK293 cells stably expressing human trkA receptor; NGF-stimulated change in Ca concentration in cells
pIC50: −log10 of the molar value.
Threshold check on pIC50: at or above 8 gives class 1, strictly below gives class 0.

In [3]: df
Out[3]:
                                   compound                      assayed_system  assigned_label
0  COCCN(C)c1nc(C(=O)Nc2ccccc2C(=O)NC2CCOCC2)co1 [Example 361]  human trkA receptor (Homo sapiens)         class 0

hey, is pIC50 for this one >= 8? COCCNC(=O)c1cc(CN2CCOCC2)ccc1NC(=O)c1csc(N2CCC(Oc3ncccn3)CC2)n1 [Example 564] class 1

hey, is pIC50 for this one >= 8? O=C(Nc1ccc(CO)cc1Cl)c1csc(N2CCC(Oc3ncccn3)CC2)n1 [Ex 3] class 1

hey, is pIC50 for this one >= 8? COCCNC(=O)c1cc(CN2CCOCC2)ccc1NC(=O)c1csc(N2CC[C@H](F)C2)n1 [Example 1470] class 0

hey, is pIC50 for this one >= 8? O=C(Nc1ccncc1C(=O)NC1CCOCC1)c1csc(N2CCC(Oc3ncccn3)CC2)n1 [Example 602] class 1
